Molecular target: Histone-lysine N-methyltransferase EZH2 (Homo sapiens)
Assay: Inhibition of EZH2 (unknown origin) at 10 uM relative to control
measurement-kind: inhibition

structure-smiles: Cc1cc(C)c(CNc2nc(Cl)nc3c2ncn3C2CCCC2)c(=O)[nH]1
target-of-assay: Histone-lysine N-methyltransferase EZH2 (Homo sapiens)
observed-measurement: -9%
--
structure-smiles: CCC(CC)n1cnc2c(NCc3c(C)cc(C)[nH]c3=O)nc(-c3ccc(N4CCOCC4)cc3)nc21
target-of-assay: Histone-lysine N-methyltransferase EZH2 (Homo sapiens)
observed-measurement: -3%
--
structure-smiles: CCC(CC)n1cnc2c(NCc3c(C)cc(C)[nH]c3=O)nc(Cl)nc21
target-of-assay: Histone-lysine N-methyltransferase EZH2 (Homo sapiens)
observed-measurement: 0.5%
--
structure-smiles: Cc1cc(C)c(CNc2nc(-c3ccc(N4CCNCC4)nc3)nc3c2ncn3C(C)C)c(=O)[nH]1
target-of-assay: Histone-lysine N-methyltransferase EZH2 (Homo sapiens)
observed-measurement: -4%

* * *

System: A549
Experiment: cells
Conditions: Homo sapiens, A549, 72 h
Description: Antiproliferative activity against human A549 cells after 72 hrs by MTT assay
measurement-kind: log10 IC50 (log10 of the value in µM)

structure-smiles: Cc1cc(C)c(CNc2nc(-c3cccc(N4CCOCC4)c3)nc3c2ncn3C2CCCC2)c(=O)[nH]1
log10 IC50: 0.42
//
structure-smiles: Cc1cc(C)c(CNc2nc(-c3ccc(N4CCN(C(=O)OC(C)(C)C)CC4)nc3)nc3c2ncn3C(C)C)c(=O)[nH]1
log10 IC50: -0.31
//
structure-smiles: CCC(CC)n1cnc2c(NCc3c(C)cc(C)[nH]c3=O)nc(Cl)nc21
log10 IC50: 0.18
//
structure-smiles: COc1ccc(/C=C\c2cc(OC)c(OC)c(OC)c2)cc1O
log10 IC50: -2.15
//
structure-smiles: Cc1cc(C)c(CNc2nc(-c3ccc(N4CCN(C)CC4)cc3)nc3c2ncn3C2CCCC2)c(=O)[nH]1
log10 IC50: 0.79

* * *

# pIC50 per record follows
Tested on: A549
Experiment: cells
Details: Homo sapiens, A549, 72 h
pIC50: −log10 of the molar value.

compound: Cc1cc(C)c(CNc2nc(-c3ccc(OC(F)(F)F)cc3)nc3[nH]cnc23)c(=O)[nH]1
target-of-assay: A549
pIC50: < 5.00
--
compound: Cc1cc(C)c(CNc2nc(-c3ccc(N4CCNCC4)nc3)nc3[nH]cnc23)c(=O)[nH]1
target-of-assay: A549
pIC50: < 5.00
--
compound: Cc1cc(C)c(CNc2nc(-c3cccc(N4CCOCC4)c3)nc3c2ncn3C2CCCCO2)c(=O)[nH]1 (stereo not drawn)
target-of-assay: A549
pIC50: < 5.00
--
compound: Cc1cc(C)c(CNc2nc(-c3ccc(OC(F)(F)F)cc3)nc3c2ncn3C(C)C)c(=O)[nH]1
target-of-assay: A549
pIC50: 5.03
--
compound: Cc1cc(C)c(CNc2nc(-c3cccc(N4CCOCC4)c3)nc3[nH]cnc23)c(=O)[nH]1
target-of-assay: A549
pIC50: < 5.00
--
compound: Cc1cc(C)c(CNc2nc(-c3ccc(N4CCOCC4)cc3)nc3c2ncn3C(C)C)c(=O)[nH]1
target-of-assay: A549
pIC50: 5.37
--
compound: Cc1cc(C)c(CNc2nc(-c3ccc(N4CCOCC4)cc3)nc3c2ncn3C2CCCCO2)c(=O)[nH]1 (stereo not drawn)
target-of-assay: A549
pIC50: < 5.00
--
compound: Cc1cc(C)c(CNc2nc(-c3ccc(OC(F)(F)F)cc3)nc3c2ncn3C2CCCCO2)c(=O)[nH]1 (stereo not drawn)
target-of-assay: A549
pIC50: 5.02

* * *

Tested on: A549
Test: cells
Details: Homo sapiens, A549, 72 h
pIC50: −log10 of the molar value.
# pIC50 per record follows

structure-smiles: Cc1cc(C)c(CNc2nc(-c3ccc(N4CCN(C)CC4)nc3)nc3c2ncn3C2CCCC2)c(=O)[nH]1
target-of-assay: A549
pIC50: 5.29
//
structure-smiles: CCC(CC)n1cnc2c(NCc3c(C)cc(C)[nH]c3=O)nc(-c3ccc(CN4CCOCC4)cc3)nc21
target-of-assay: A549
pIC50: 5.21
//
structure-smiles: Cc1cc(C)c(CNc2nc(-c3ccc(N4CCN(C)CC4)cc3)nc3[nH]cnc23)c(=O)[nH]1
target-of-assay: A549
pIC50: < 5.00
//
structure-smiles: COc1ccc(CNc2nc(NCc3ccc(OC)cc3)c3ncn(C(C)C)c3n2)cc1
target-of-assay: A549
pIC50: < 5.00
//
structure-smiles: Cc1cc(C)c(CNc2nc(-c3ccc(N4CCOCC4)cc3)nc3[nH]cnc23)c(=O)[nH]1
target-of-assay: A549
pIC50: < 5.00
//
structure-smiles: Cc1cc(C)c(CNc2nc(-c3ccc(N4CCNCC4)nc3)nc3c2ncn3C(C)C)c(=O)[nH]1
target-of-assay: A549
pIC50: < 5.00
//
structure-smiles: CCC(CC)n1cnc2c(NCc3c(C)cc(C)[nH]c3=O)nc(-c3ccc(N4CCN(C)CC4)nc3)nc21
target-of-assay: A549
pIC50: < 5.00
//
structure-smiles: Cc1cc(C)c(CNc2nc(-c3ccc(N4CCN(C(=O)OC(C)(C)C)CC4)nc3)nc3c2ncn3C2CCCC2)c(=O)[nH]1
target-of-assay: A549
pIC50: < 5.00

* * *

Test system: A549
Test: cells
Conditions: Homo sapiens, A549, 72 h
# IC50 per record follows

compound: Cc1cc(C)c(CNc2nc(-c3ccc(CN4CCOCC4)cc3)nc3c2ncn3C2CCCC2)c(=O)[nH]1
IC50: > 10 µM

compound: Cc1cc(C)c(CNc2nc(-c3ccc(N4CCN(C(=O)OC(C)(C)C)CC4)nc3)nc3c2ncn3C2CCCCO2)c(=O)[nH]1 (configuration not stated)
IC50: > 10 µM

compound: Cc1cc(C)c(CNc2nc(-c3ccc(N4CCN(C)CC4)cc3)nc3c2ncn3C2CCCCO2)c(=O)[nH]1 (configuration not stated)
IC50: > 10 µM

compound: Cc1cc(C)c(CNc2nc(Cl)nc3c2ncn3C2CCCCO2)c(=O)[nH]1 (configuration not stated)
IC50: 1.93 µM

compound: Cc1cc(C)c(CNc2nc(Cl)nc3c2ncn3C2CCCC2)c(=O)[nH]1
IC50: 0.1 µM

compound: Cc1cc(C)c(CNc2nc(-c3ccc(N4CCOCC4)cc3)nc3c2ncn3C2CCCC2)c(=O)[nH]1
IC50: > 10 µM

compound: CCC(CC)n1cnc2c(NCc3c(C)cc(C)[nH]c3=O)nc(-c3ccc(N4CCNCC4)nc3)nc21
IC50: 6.13 µM

compound: Cc1cc(C)c(CNc2nc(-c3ccc(N4CCNCC4)nc3)nc3c2ncn3C2CCCC2)c(=O)[nH]1
IC50: > 10 µM

compound: Cc1cc(C)c(CNc2nc(-c3ccc(CN4CCOCC4)cc3)nc3c2ncn3C2CCCCO2)c(=O)[nH]1 (configuration not stated)
IC50: > 10 µM

compound: CCC(CC)n1cnc2c(NCc3c(C)cc(C)[nH]c3=O)nc(-c3ccc(OC(F)(F)F)cc3)nc21
IC50: 5.38 µM

compound: Cc1cc(C)c(CNc2nc(-c3ccccc3F)nc3c2ncn3C2CCCCO2)c(=O)[nH]1 (configuration not stated)
IC50: > 10 µM

compound: Cc1cc(C)c(CNc2nc(-c3ccc(CN4CCOCC4)cc3)nc3[nH]cnc23)c(=O)[nH]1
IC50: > 10 µM

compound: Cc1cc(C)c(CNc2nc(-c3ccc(N4CCN(C)CC4)nc3)nc3[nH]cnc23)c(=O)[nH]1
IC50: > 10 µM

compound: CCC(CC)n1cnc2c(NCc3c(C)cc(C)[nH]c3=O)nc(-c3ccc(N4CCN(C(=O)OC(C)(C)C)CC4)nc3)nc21
IC50: 8.21 µM

compound: CCC(CC)n1cnc2c(NCc3c(C)cc(C)[nH]c3=O)nc(-c3ccc(N4CCN(C)CC4)cc3)nc21
IC50: 5.09 µM

compound: Cc1cc(C)c(CNc2nc(-c3ccc(N4CCN(C)CC4)nc3)nc3c2ncn3C(C)C)c(=O)[nH]1
IC50: > 10 µM

compound: Cc1cc(C)c(CNc2nc(-c3ccc(OC(F)(F)F)cc3)nc3c2ncn3C2CCCC2)c(=O)[nH]1
IC50: > 10 µM

* * *

Tested on: A549
Test: cells
Details: Homo sapiens, A549, 72 h
pIC50: −log10 of the molar value.
# pIC50 per record follows

structure-smiles: Cc1cc(C)c(CNc2ncnc3c2ncn3C2CCCC2)c(=O)[nH]1
qualifying-sign: <
pIC50: 5.00
--
structure-smiles: CCC(CC)n1cnc2c(NCc3c(C)cc(C)[nH]c3=O)nc(-c3ccc(N4CCOCC4)cc3)nc21
qualifying-sign: =
pIC50: 5.23
--
structure-smiles: Cc1cc(C)c(CNc2nc(Cl)nc3c2ncn3C(C)C)c(=O)[nH]1
qualifying-sign: =
pIC50: 5.95
--
structure-smiles: Cc1cc(C)c(CNc2nc(-c3ccc(N4CCN(C)CC4)cc3)nc3c2ncn3C(C)C)c(=O)[nH]1
qualifying-sign: =
pIC50: 5.33
--
structure-smiles: Cc1cc(C)c(CNc2nc(-c3cccc(N4CCOCC4)c3)nc3c2ncn3C(C)C)c(=O)[nH]1
qualifying-sign: <
pIC50: 5.00
